Study target: T1, human Trop-2 on the surface of cells (CHO/Trop-2 cells; BxPC-3 cells; NCI-N87 cells) (human, UniProt P09758 27-323)
T1 sequence (looked up): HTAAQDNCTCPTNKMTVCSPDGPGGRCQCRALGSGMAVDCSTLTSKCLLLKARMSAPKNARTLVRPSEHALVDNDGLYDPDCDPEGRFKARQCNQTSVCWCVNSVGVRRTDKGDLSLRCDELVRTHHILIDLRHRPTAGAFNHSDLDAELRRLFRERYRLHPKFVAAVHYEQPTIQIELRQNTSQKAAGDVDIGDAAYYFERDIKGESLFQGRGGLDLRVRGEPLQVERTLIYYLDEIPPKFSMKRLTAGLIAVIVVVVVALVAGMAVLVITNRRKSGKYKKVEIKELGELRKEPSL
Run description: cell-based or functional assay
Experimental endpoint: Internalization percentage (%), 1 h, BxPC-3 cells, FACS
Write the value in % as a bare number.

Lookup: // query Internalization percentage (%), 1 h, BxPC-3 cells, FACS value for entry chimeric antibody ch11-4 (antibody, human IgG1, V domains shown) VH: QVQLQQPGAELVRPGASVNLSCKASGYTFTSYWINWVKQRPGQGLEWIGNIYPSNSYTNYNQKFKDTATLTVDKSSSTAYMQLSSPTSEDSAVYFCSSYRSDGFAYWGQGTLVTVSA VL: DILLTQSPAILSVSPGEKVSFSCRASQNIGTSIHWYQQRTNGSPRLLIEFASESISGIPSRFSGSGSGTDFTLTINSVESEDIADYYCQQSNSWPFTFGGGTKLEIK
Found: -2
